- experiment notes: Plasma concentration versus time of Compound I and metabolite Compound III in patients dosed QD or BID with Form B of Compound II plus fulvestrant
- Format: in vivo, human
- run parameters: human, plasma, oral, 650 mg, Cohort 5, 650 mg QD of Form B, Day 29, 8.0 h; read-out: Compound I Concentration, Mean
value kind: concentration at 8 h (ng/mL)

INSERT INTO measurements (sample_smiles, value_kind, units, recorded_value) VALUES
  ('CC(C)N1CCN(c2ccc(Nc3ncc4cc5n(c4n3)C3(CCCCC3)CNC5=O)nc2)CC1', 'concentration at 8 h', 'ng/mL', 66);

====

- experiment notes: Plasma concentration versus time of Compound I and metabolite Compound III in patients dosed QD or BID with Form B of Compound II plus fulvestrant
- Format: in vivo, human
- run parameters: human, plasma, oral, 100 mg, Cohort 6, 100 mg BID of Form B, Day 29, 10.0 h; read-out: Compound I Concentration, Min
value kind: concentration at 10 h (ng/mL)

INSERT INTO assay_data (sample_smiles, units, recorded_value) VALUES
  ('CC(C)N1CCN(c2ccc(Nc3ncc4cc5n(c4n3)C3(CCCCC3)CNC5=O)nc2)CC1', 'ng/mL', 2.88);

====

- experiment notes: Plasma concentration versus time of Compound I and metabolite Compound III in patients dosed QD or BID with Form B of Compound II plus fulvestrant
- Format: in vivo, human
- run parameters: human, plasma, oral, 650 mg, Cohort 5, 650 mg QD of Form B, Day 15; read-out: Trough Compound III Concentration, Mean
- From the text: Patients were enrolled into 1 of 2 parallel, independently operating, dose-escalation dosing cohorts with Form B of Compound II administered continuously either once daily (QD) or twice daily (BID) with food with fixed-dose fulvestrant (intramuscularly every 14 days for the first three injections and then every 28 days). Pre- or perimenopausal patients also received goserelin for the duration of study treatment. […]
value kind: concentration at 15 day (ng/mL)

INSERT INTO results (compound, value_kind, recorded_value) VALUES
  ('O=C1NCC2(CCCCC2)n2c1cc1cnc(Nc3ccc(N4CCNCC4)cn3)nc12 [Compound III]', 'concentration at 15 day', 3.13);

====

- experiment notes: Steady-state AUC0-24,ss, (AUC0-24,ss)/dose, half-life and time to steady state: Compound I versus palbociclib, ribociclib, abemaciclib
- Assay type: in vivo, human
- run parameters: human, in vivo; 50 mg QD; AUC0-24=(AUC0-10)*2.49655; read-out: Extrapolated AUC0-24,ss
value kind: AUC(0-t) (µg·h/mL)

INSERT INTO assay_data (compound, recorded_value) VALUES
  ('CC(=O)c1c(C)c2cnc(Nc3ccc(N4CCNCC4)cn3)nc2n(C2CCCC2)c1=O [palbociclib]', 0.684);

====

- experiment notes: Plasma concentration versus time of Compound I and metabolite Compound III in patients dosed QD or BID with Form B of Compound II plus fulvestrant
- Type: in vivo, human
- run parameters: human, plasma, oral, 300 mg, 300 mg QD of Form B, Day 29, 10.0 h, Mean; read-out: Compound I Concentration
value kind: concentration at 10 h (ng/mL)

INSERT INTO assay_data (sample_smiles, value_kind, units, recorded_value) VALUES
  ('CC(C)N1CCN(c2ccc(Nc3ncc4cc5n(c4n3)C3(CCCCC3)CNC5=O)nc2)CC1', 'concentration at 10 h', 'ng/mL', 25.6);

====

- experiment notes: Plasma concentration versus time of Compound I and metabolite Compound III in patients dosed QD or BID with Form B of Compound II plus fulvestrant
- Format: in vivo, human
- run parameters: human, plasma, oral, 650 mg, Cohort 5, 650 mg QD of Form B, Day 29, 1.0 h; read-out: Compound I Concentration, Median
value kind: concentration at 1 h

INSERT INTO measurements (sample_smiles, recorded_value) VALUES
  ('CC(C)N1CCN(c2ccc(Nc3ncc4cc5n(c4n3)C3(CCCCC3)CNC5=O)nc2)CC1', '20.9 ng/mL');

====

- experiment notes: Plasma concentration versus time of Compound I and metabolite Compound III in patients dosed QD or BID with Form B of Compound II plus fulvestrant
- Format: in vivo, human
- run parameters: human, plasma, oral, 200 mg, 200 mg QD of Form B, Day 1, 3.0 h, Mean; read-out: Compound I Concentration
value kind: concentration at 3 h (ng/mL)

INSERT INTO results (sample_smiles, recorded_value) VALUES
  ('CC(C)N1CCN(c2ccc(Nc3ncc4cc5n(c4n3)C3(CCCCC3)CNC5=O)nc2)CC1', 20.2);

====

- experiment notes: Plasma concentration versus time of Compound I and metabolite Compound III in patients dosed QD or BID with Form B of Compound II plus fulvestrant
- Assay type: in vivo, human
- run parameters: human, plasma, oral, 500 mg, Cohort 4, 500 mg QD of Form B, Day 29, 6.0 h; read-out: Compound III Concentration, Mean
- From the text: Patients were enrolled into 1 of 2 parallel, independently operating, dose-escalation dosing cohorts with Form B of Compound II administered continuously either once daily (QD) or twice daily (BID) with food with fixed-dose fulvestrant (intramuscularly every 14 days for the first three injections and then every 28 days). Pre- or perimenopausal patients also received goserelin for the duration of study treatment. […]
value kind: concentration at 6 h

INSERT INTO results (sample_smiles, recorded_value) VALUES
  ('O=C1NCC2(CCCCC2)n2c1cc1cnc(Nc3ccc(N4CCNCC4)cn3)nc12', '4.18 ng/mL');

====

- experiment notes: Plasma concentration versus time of Compound I and metabolite Compound III in patients dosed QD or BID with Form B of Compound II plus fulvestrant
- Type: in vivo, human
- run parameters: human, plasma, oral, 100 mg, 100 mg BID of Form B, Day 1, 2.0 h, Median; read-out: Compound III Concentration
- Source text: Patients were enrolled into 1 of 2 parallel, independently operating, dose-escalation dosing cohorts with Form B of Compound II administered continuously either once daily (QD) or twice daily (BID) with food with fixed-dose fulvestrant (intramuscularly every 14 days for the first three injections and then every 28 days). Pre- or perimenopausal patients also received goserelin for the duration of study treatment. […]
value kind: concentration at 2 h (ng/mL)

INSERT INTO measurements (sample_smiles, recorded_value) VALUES
  ('O=C1NCC2(CCCCC2)n2c1cc1cnc(Nc3ccc(N4CCNCC4)cn3)nc12', 1);

====

- experiment notes: Plasma concentration versus time of Compound I and metabolite Compound III in patients dosed QD or BID with Form B of Compound II plus fulvestrant
- Type: in vivo, human
- run parameters: human, plasma, oral, 300 mg, 300 mg QD of Form B, Day 29, 4.0 h, Median; read-out: Compound I Concentration
value kind: concentration at 4 h (ng/mL)

INSERT INTO measurements (sample_smiles, value_kind, recorded_value) VALUES
  ('CC(C)N1CCN(c2ccc(Nc3ncc4cc5n(c4n3)C3(CCCCC3)CNC5=O)nc2)CC1', 'concentration at 4 h', 34.2);

====

- experiment notes: Plasma concentration versus time of Compound I and metabolite Compound III in patients dosed QD or BID with Form B of Compound II plus fulvestrant
- Format: in vivo, human
- run parameters: human, plasma, oral, 500 mg, 500 mg QD of Form B, Day 29, 3.0 h, Median; read-out: Compound I Concentration
value kind: concentration at 3 h (ng/mL)

INSERT INTO assay_data (molecule, value_kind, recorded_value) VALUES
  ('CC(C)N1CCN(c2ccc(Nc3ncc4cc5n(c4n3)C3(CCCCC3)CNC5=O)nc2)CC1 [Compound I]', 'concentration at 3 h', 41.4);

====

- experiment notes: Plasma concentration versus time of Compound I and metabolite Compound III in patients dosed QD or BID with Form B of Compound II plus fulvestrant
- Format: in vivo, human
- run parameters: human, plasma, oral, 150 mg, Cohort 7, 150 mg BID of Form B, Day 15; read-out: Trough Compound I Concentration, Median
value kind: concentration at 15 day (ng/mL)

INSERT INTO results (sample_smiles, units, recorded_value) VALUES
  ('CC(C)N1CCN(c2ccc(Nc3ncc4cc5n(c4n3)C3(CCCCC3)CNC5=O)nc2)CC1', 'ng/mL', 23.3);

====

- experiment notes: Plasma concentration versus time of Compound I and metabolite Compound III in patients dosed QD or BID with Form B of Compound II plus fulvestrant
- Assay type: in vivo, human
- run parameters: human, plasma, oral, 200 mg, 200 mg QD of Form B, Day 29, 2.0 h, Median; read-out: Compound I Concentration
value kind: concentration at 2 h

INSERT INTO measurements (sample_smiles, value_kind, recorded_value) VALUES
  ('CC(C)N1CCN(c2ccc(Nc3ncc4cc5n(c4n3)C3(CCCCC3)CNC5=O)nc2)CC1', 'concentration at 2 h', '7.27 ng/mL');

From: patent US11357779B2
